src = paper PMC10307035

protocol-notes: ROS generation rate / quantum yield, DPBF bleaching in methanol
Assay type: physicochemical
run-conditions: in methanol, DPBF trap, 450–470 nm illumination, riboflavin as reference
Recorded φROS (ROS generation quantum yield), one value per entry.
Quick note: give the figure in %, leave out the unit.

Some compounds with recorded φROS (ROS generation quantum yield):
item-smiles: CCCCNC(=O)Cn1cc(C#Cc2ccc3c4cccc5cccc(c6cccc2c63)c54)c(=O)n(COC(=O)C(C)(C)C)c1=O
φROS (ROS generation quantum yield), %: 17.6

item-smiles: O=C(NCCCCO)c1ccc(-c2ccc3c4cccc5cccc(c6cccc2c63)c54)s1
φROS (ROS generation quantum yield), %: 59.0

item-smiles: CCCCNC(=O)c1ccc(-c2ccc3c4cccc5cccc(c6cccc2c63)c54)s1
φROS (ROS generation quantum yield), %: 59.1

Ask | Give its φROS (ROS generation quantum yield) value. Item: CC(C)(C)C(=O)OCn1c(=O)c(C#Cc2ccc3c4cccc5cccc(c6cccc2c63)c54)cn(CC(=O)N(CCO)CCO)c1=O
Reply | 19.1

Ask | φROS (ROS generation quantum yield) lookup needed for CC(C)(C)C(=O)OCn1c(=O)c(C#Cc2ccc3c4cccc5cccc(c6cccc2c63)c54)cn(CC(=O)NCCO)c1=O , thanks.
Reply | 17.3

Ask | Entry under review: CC(C)(C)C(=O)OCn1c(=O)c(C#Cc2ccc3c4cccc5cccc(c6cccc2c63)c54)cn(CC(=O)NCCCCO)c1=O . Reported φROS (ROS generation quantum yield)?
Reply | 18.2

Ask | Give the measured φROS (ROS generation quantum yield) of Cn1cc(C#Cc2ccc3c4cccc5cccc(c6cccc2c63)c54)c(=O)n(C)c1=O .
Reply | 22.8

Ask | Would you kindly share the measured φROS (ROS generation quantum yield) for O=c1[nH]c(=O)n([C@@H]2O[C@H](CO)[C@@H](O)[C@@H]2O)cc1C#Cc1ccc2c3cccc4cccc(c5cccc1c52)c43 ?
Reply | 22.8

Ask | Need φROS (ROS generation quantum yield) of O=C(c1ccc(-c2ccc3c4cccc5cccc(c6cccc2c63)c54)s1)N(CCO)CCO , thanks.
Reply | 60.0

Ask | Name the reported φROS (ROS generation quantum yield) value associated with the compound CC(C)(C)C(=O)OCn1c(=O)c(C#Cc2ccc3c4cccc5cccc(c6cccc2c63)c54)cn(CC(=O)NCCCCCO)c1=O
Reply | 17.2

Ask | Can you look up the measured φROS (ROS generation quantum yield) of CC(=O)Nc1ccc(C#Cc2ccc3c4cccc5cccc(c6cccc2c63)c54)cc1 for me?
Reply | 23.1

Ask | Entry under review: CC(C)(C)C(=O)OCn1c(=O)c(C#Cc2ccc3c4cccc5cccc(c6cccc2c63)c54)cn(CC(=O)NC[C@@H](O)C(C)(C)CO)c1=O . Reported φROS (ROS generation quantum yield)?
Reply | 17.3

Ask | Fill in the blank: the reported φROS (ROS generation quantum yield) of O=c1[nH]c(=O)n([C@H]2C[C@H](O)[C@@H](CO)O2)cc1C#Cc1ccc2c3cccc4cccc(c5cccc1c52)c43 is ____.
Reply | 20.9

---

protocol-notes: ROS generation rate / quantum yield, DPBF bleaching in methanol
Format: physicochemical
run-conditions: in methanol, DPBF trap, 450–470 nm illumination, riboflavin as reference
Reported φROS (ROS generation quantum yield) by item:
I'd appreciate it if you wrote the number followed by its unit.

// solved cases for φROS (ROS generation quantum yield) follow
compound: O=C(O)c1ccc(-c2ccc3c4cccc5cccc(c6cccc2c63)c54)s1 [Compound 16]
φROS (ROS generation quantum yield): 59.0 ± 1.8%
--
compound: CC(C)(C)C(=O)OCn1c(=O)c(C#Cc2ccc3c4cccc5cccc(c6cccc2c63)c54)cn(CC(=O)NCCCCCCO)c1=O [Compound 12]
φROS (ROS generation quantum yield): 18.1 ± 0.4%
--
compound: CC(C)(C)C(=O)OCn1c(=O)c(C#Cc2ccc3c4cccc5cccc(c6cccc2c63)c54)cn(CC(=O)O)c1=O [Compound 5]
φROS (ROS generation quantum yield): 20.5 ± 0.2%

Ask | May I ask what φROS (ROS generation quantum yield) has been recorded for CN(C)c1ccc(C#Cc2ccc3c4cccc5cccc(c6cccc2c63)c54)cc1 [Compound 14] ?
Reply | 7.1 ± 0.2%

Ask | If you can, please state the reported φROS (ROS generation quantum yield) value of O=c1[nH]cc(C#Cc2ccc3c4cccc5cccc(c6cccc2c63)c54)c(=O)[nH]1 [Compound 3] .
Reply | 12.7 ± 1.2%

Ask | For CC(C)(C)C(=O)OCn1c(=O)c(C#Cc2ccc3c4cccc5cccc(c6cccc2c63)c54)cn(CC(=O)NCCCO)c1=O [Compound 10] , what is its reported φROS (ROS generation quantum yield)?
Reply | 16.5 ± 0.2%
